Please go through the items and note down their Selectivity Ratio (Platelet EC50/FL5.12/Bcl-2 EC50).
# Test system: FL5.12/Bcl-2 cells
# protocolDescription: FL5.12/Bcl-2 cell viability assay
# Type: cell-based, murine
# conditionNotes: ratio of canine platelet EC50 to FL5.12/Bcl-2 EC50

Check out these entries, answers already filled in.
mol: CN(C)CCCNc1ccc(S(=O)(=O)NC(=O)c2ccc(N3CCN(CC4=C(c5ccc(Cl)cc5)CC(C)(C)CC4)CC3)cc2Oc2ccc3[nH]ccc3c2)cc1C#N
tgt: FL5.12/Bcl-2 cells
experimentalResult: >257
//
mol: O=C(NS(=O)(=O)c1ccc(NCC2CCOCC2)c([N+](=O)[O-])c1)c1ccc(N2CCN(Cc3cc(CN4CCCC4)ccc3-c3ccc(Cl)cc3)CC2)cc1Oc1cccc2[nH]ccc12
tgt: FL5.12/Bcl-2 cells
experimentalResult: >906
//
mol: CC1(C)CCC(CN2CCN(c3ccc(C(=O)NS(=O)(=O)c4ccc(NCCCN5CCCC5)c([N+](=O)[O-])c4)c(Oc4cccc5[nH]ccc45)c3)CC2)=C(c2ccc(C(F)(F)F)cc2)C1
tgt: FL5.12/Bcl-2 cells
experimentalResult: >666
//
mol: O=C(NS(=O)(=O)c1ccc(NCC2CCOCC2)c([N+](=O)[O-])c1)c1ccc(N2CCN(Cc3ccccc3-c3ccc(Cl)cc3)CC2)cc1Oc1ccc2c(c1)CCN2
tgt: FL5.12/Bcl-2 cells
experimentalResult: >23
//
mol: CN1CCC(CNc2ccc(S(=O)(=O)NC(=O)c3ccc(N4CCN(CC5=C(c6ccc(Cl)cc6)CC(C)(C)CC5)CC4)cc3Oc3ccc4[nH]ccc4c3)cc2[N+](=O)[O-])(N(C)C)CC1
tgt: FL5.12/Bcl-2 cells
experimentalResult: >1404

// each listed compound needs a value for Selectivity Ratio (Platelet EC50/FL5.12/Bcl-2 EC50)
1. CC1(C)CCC(CN2CCN(c3ccc(C(=O)NS(=O)(=O)c4ccc(NCCCN5CCCC5)c([N+](=O)[O-])c4)c(Oc4cccc5[nH]ccc45)c3)CC2)=C(c2cccc(C(F)(F)F)c2)C1
2. CN1CCC(CNc2ccc(S(=O)(=O)NC(=O)c3ccc(N4CCN(CC5=C(c6ccc(Cl)cc6)CC(C)(C)CC5)CC4)cc3Oc3ccc4[nH]ccc4c3)cc2[N+](=O)[O-])CC1

1. >107
2. >2392

# assay system FL5.12/Bcl-2 cells: give Selectivity Ratio (Platelet EC50/FL5.12/Bcl-2 EC50) of CN1CCC(Nc2ccc(S(=O)(=O)NC(=O)c3ccc(N4CCN(CC5=C(c6ccc(Cl)cc6)CC(C)(C)CC5)CC4)cc3Oc3ccc4[nH]ncc4c3)cc2[N+](=O)[O-])CC1
>49
